# measurement-target: Endothelin receptor type B (Homo sapiens, UniProt P24530)
# Sequence (P24530 whole entry): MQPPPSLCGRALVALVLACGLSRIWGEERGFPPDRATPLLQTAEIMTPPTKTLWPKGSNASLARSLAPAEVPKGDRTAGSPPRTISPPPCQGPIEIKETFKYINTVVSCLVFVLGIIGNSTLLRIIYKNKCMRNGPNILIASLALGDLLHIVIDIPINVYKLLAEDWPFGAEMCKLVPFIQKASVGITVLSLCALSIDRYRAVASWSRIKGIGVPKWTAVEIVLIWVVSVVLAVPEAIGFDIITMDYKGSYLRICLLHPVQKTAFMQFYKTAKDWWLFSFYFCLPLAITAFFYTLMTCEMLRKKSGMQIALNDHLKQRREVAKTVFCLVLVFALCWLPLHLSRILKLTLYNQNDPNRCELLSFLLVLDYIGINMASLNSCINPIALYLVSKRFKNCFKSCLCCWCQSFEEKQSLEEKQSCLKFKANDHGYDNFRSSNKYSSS
# measurement-notes: Affinity for human endothelin B receptor expressed in CHO-K1 cells.
pIC50: −log10 of the molar value.
outcome-measure: pIC50

Ask: Name the recorded pIC50 for `COc1cccc(Sc2c(C(=O)O)n(Cc3ccc4c(c3)OCO4)c3cc4c(cc23)OCO4)c1` .
Reply: 6.12

I. COc1cccc(Sc2c(C(=O)O)n(Cc3ccc4c(c3)OCO4)c3cc(OCc4ccccc4)c(OC)cc23)c1
II. COc1cccc(Sc2c(C(=O)O)n(Cc3cc(OC)c4c(c3)OCO4)c3cc4c(cc23)OCO4)c1
III. COc1cc2c(Sc3ccc4c(c3)OCO4)c(C(=O)O)n(Cc3ccc4c(c3)OCO4)c2cc1OCc1ccccc1
IV. COc1cccc(Sc2c(C(=O)O)n(Cc3ccccc3)c3ccccc23)c1
Ask: With regard to pIC50, arrange the entries in ascending order, please. Please respond with the labels ordered as the question requires.
Reply: II, IV, I, III
(II: 4.54, IV: 4.82, I: 5.80, III: 6.31)

P. COc1cccc(Sc2c(C(=O)O)n(Cc3ccccc3)c3cc(OC)c(OC)cc23)c1
Q. O=C(O)c1c(Sc2ccc3c(c2)OCO3)c2cc3c(cc2n1Cc1ccc2c(c1)OCO2)OCO3
Ask: Pick the one with the larger pIC50: P vs Q Give the label of your selection.
Reply: Q
(Q: 6.38, P: 6.06)
